system: T. cruzi amastigotes; assay: Drug combination assay against amastigotes (CPRG, Compusyn); assay type: cell-based; details: Trypanosoma cruzi, 72 h, read-out: IC50 (compound 2), compound 2 alone, evaluated in the same plate as the combination
outcome-measure: IC50 (nM)
Note: unit nM is implicit; provide only the numeric part.

Problem: Given the entry Cc1cc2nc3ccc(N(C)C)cc3[s+]c2cc1N [TBO, Toluidine Blue O] , report its measured IC50.
Solution: 322

* * *

pIC50 by entry:
test system: T. cruzi amastigotes; assay: Drug combination assay against amastigotes (CPRG, Compusyn); format: cell-based; details: Trypanosoma cruzi, 72 h, read-out: IC50 (compound 1), compound 1 alone, evaluated in the same plate as the combination
Note on pIC50: it is the negative log10 of concentration, concentration in mol/L.

compound: O=C(Cn1ccnc1[N+](=O)[O-])NCc1ccccc1 [BZ, Benznidazole]
pIC50: 5.48
//
compound: Cc1cc2nc3ccc(N(C)C)cc3[s+]c2cc1N [TBO, Toluidine Blue O]
pIC50: 6.42

Now, please, on to the next compound.
Problem: Given the entry CCNc1cc2[s+]c3cc(NCC)c(C)cc3nc2cc1C [NMB, New Methylene Blue] , report its measured pIC50.
Solution: 6.91

This collection of values is drawn from paper PMC6637691.
